Quick reference for apparent KD of MS2 coat protein among some sequences
Tested on: MS2 coat protein
Assay: apparent KD of MS2 coat protein; higher = weaker reporter binding
Conditions: Eterna round: R107; input ligand: theophylline 2 mM

[ask] For the sequence AAUCUGAUUGCGGCCGCCACUAAUUUUCCAUGAGUAUUGCAAUUACAUGAGGAUCACCCAUGUCAUAGGACCGGGCAUGACAUCU [theeternabot_sameState_MS2_Trp_B_45] , what apparent KD of MS2 coat protein is on record?
[reply] 309 nM

[ask] Look up apparent KD of MS2 coat protein for this sequence: AGCACUGUGACGGCCGCCACUAUAUUAGGGUGGUAGGGUUCAUAAAUACAUGAGGAUCACCCAUGUAGGACCGGGUCUCAGUGCA [Omei Trp Exc B A v1]
[reply] 10 nM

[ask] Returns the measured apparent KD of MS2 coat protein for the input sequence. Input: UUAGAUUGCCGAAGGAGCGAGAUAGCCUACAUGAGGAUCACCCAUGUAGAAACGGGCUGAUCUCAGGUAGGUCGCGGCAGGUAGC [Soaquatan]
[reply] 25.8 nM

[ask] I have this sequence here, GCCUCCAGCCGAAGGAGCGCUAGAAGGUGACAUGAGGAUCACCCAUGUGUGUGAUGUGGCUAGCAGGUAGGUCGCGGAGGAGGCA [Exclusion - Arginine B (Freestyle 22)] , and I need its recorded apparent KD of MS2 coat protein.
[reply] 74.1 nM

[ask] Entry under review: CACGAAAGAUCGGCCGCCACUAGCCUGUGUGUACUAGCACAUGAGGAUCACCCAUGUUCUUGCGUUAGGACCGGGAUUGAGCGUG [#05 Exclusion Tryptophan B] . Reported apparent KD of MS2 coat protein?
[reply] 33.9 nM

[ask] Look at this sequence and give its reported apparent KD of MS2 coat protein. GUGUGGCGCUCGGCCGCCACUCAGACAUGAGGAUCACCCAUGUAGAACAUGAGGAUCACCCAUGUGAGGACCGGGAGACACACGA [Exclusion Tryptophan B GF11]
[reply] 404 nM

[ask] Reported apparent KD of MS2 coat protein for AGCUCGCAUCCUCUAGCGUCAAAGACGCCUCGAGGACCGGUACGGCCGCCACUCGAUAUGAGGAUCACCCAUAUCAAAGCGAGCA [TrypAX 2 #SwitchBubble #AlternativeMS2 #MS2Late #CuTurnoff] : what is it?
[reply] 75.5 nM

###

System: MS2 coat protein
Assay: apparent KD of MS2 coat protein; designed switch direction (-1 OFF switch, 1 ON switch): 1; higher = weaker reporter binding
Settings: input ligand: microRNA oligo, concentration not stated
apparent KD of MS2 coat protein values for the sequences below.
Field format: number, assumed nM, no unit text.

UUGGUUGUCGUAGGAUAUGUAGGAUAUUCCUACAUGAGGAUCACCCAUGUUCGCAUGGAAGAAGGACAGAAGGACGAUGACCAU [pwkr ssNG2 2FMN + 1F5.20] (Eterna round: R96, puzzle: Same State NG 2) ... 904

[ask] # get_value(readout='apparent KD of MS2 coat protein', item= GCUAGAAUUAACGCCUACAUGAGGAUCACCCAUGUAUGUAGGCAGGAUAUCGUUUGCUUUGCAAACGAGAAGGGCCUUACUAGC [JL SSNG3 1.11] (Eterna round: R96, puzzle: Same State NG 3) )
[reply] 53.3

[ask] Give its apparent KD of MS2 coat protein value. Item: AGCGAAAGCAGUCACAUGAGGAUCACCCAUGUAUUAACUAUUGAGGAUAUGCAGCGACGGGUGUAGCAGAAGGCAGUGAGAAGG [Eternabot solution 30] (Eterna round: R96, puzzle: Same State NG 3)
[reply] 52.1

###

Readings of apparent KD of MS2 coat protein for the listed sequences
Test system: MS2 coat protein
Assay: apparent KD of MS2 coat protein; designed switch direction (-1 OFF switch, 1 ON switch): 1; higher = weaker reporter binding
Conditions: input ligand: none
Expressed in nM, but write only the number.

The cases that follow already have their apparent KD of MS2 coat protein on record.
AAAACAUGACGAGGAUAUGGAACAUGAGGAUCACCCAUGUAUGUUCCAUAACGCGAAUGACGAAUCCAGAAGGCGUCGUGAAAA [Mat - Same State NG 2 - JL mod - D27] (Eterna round: R96, puzzle: Same State NG 2) ... 272
UUGAAGAAUUAAGGAUAUUGAAUACAUAUGUUUAACAUGAGGAUCACCCAUGUGGGUUGCGGUGUCGAGAAGGUAAAUUACUAG [JL SSNG2 1.50] (Eterna round: R96, puzzle: Same State NG 2) ... 207
CCGAUAAUUGGAGGAUAUGGAGCCUUAUUGGCUCCAGAAGGCUAUAAACAUGAGGAUCACCCAUGUCGGCGGUCUAAUGACCGA [Eli NG1ss - 50] (Eterna round: R96, puzzle: Same State NG 1) ... 60.4

Turning now to a further record.
[ask] Any idea what apparent KD of MS2 coat protein was measured for GUUACAUGAGGAUCACCCAUGUGUGUGUGGGAGUGAGUGGCUUAGGAUAUCUAUGAUUUUAGUUAAGAGAAGGGAGAUUGUUGU [SS-NG3-LRO05] (Eterna round: R96, puzzle: Same State NG 3) ?
[reply] 328

###

System: MS2 coat protein
Assay: apparent KD of MS2 coat protein; designed switch direction (-1 OFF switch, 1 ON switch): 1; higher = weaker reporter binding
Settings: input ligand: FMN 200 uM
Below, each entry is listed alongside its reported apparent KD of MS2 coat protein.
Note to self: number, then unit, no commentary.

GGUGGGUUGCUACCAACACAUGAGGAUCACCCAUGUUUUGGGAAGGAUAUGGUACCUAUUUGGUACCAGAAGGUCCCGUUGGUG [salish99_SSNG3_r04_706] (Eterna round: R96, puzzle: Same State NG 3) ... 37.6 nM

Proceeding to the next sequence to report its apparent KD of MS2 coat protein.
[ask] Look at this sequence and give its reported apparent KD of MS2 coat protein. AUUACUAACAUAGGAUAUCAUGCGAAAAUUGCGUGAGAAGGGUGGACACUGUCUUUCUCGGAGCACAUGAGGAUCACCCAUGUG [SameState NG1 #69] (Eterna round: R96, puzzle: Same State NG 1)
[reply] 81.4 nM

###

System: MS2 coat protein
Experiment: apparent KD of MS2 coat protein; higher = weaker reporter binding
Settings: Eterna round: R107; input ligand: tryptophan 2.4 mM
Measured apparent KD of MS2 coat protein determines class: bin A (below 0.03 µM), bin B (0.03 µM to below 0.1 µM), bin C (0.1 µM or more)

GGAUAGGACACGGCCGCCACUAGCUAGGAUACUAGCAACAUUUCCUCGCAUGAGGAUCACCCAUGUAGGACCGGGUGUCCUAUCG ... bin C

[ask] Please report the category associated with AAACAUGAGGAUCACCCAUGUGGAACCGAAGGAGCGGCGCACAUGCCAGGUAGGUCGCGGGACAUGAGGACAUGAGGAUCACCCA [Same State Arginine A 3] , nothing else.
[reply] bin C

[ask] Record GACCGGUUAUAGUGCGAUUGUCUUGUGGAAGGAGCGCAGAGGACUGCAGGUAGGUCGCCACAUGAGGAUCACCCAUGUCAGGAUA [Tirevete] — which class?
[reply] bin A

[ask] Category of CACGAAAGAUCGGCCGCCACUAGCCUGUGUGUACUAGCACAUGAGGAUCACCCAUGUUCUUGCGUUAGGACCGGGAUUGAGCGUG [#05 Exclusion Tryptophan B] , please.
[reply] bin A

[ask] Category of CAGUCAGUCAGUCAAUGAGUGAGGCAUGAAGGAGCGUGGGAAACCACAGGUAGGUCGCAUGCGAAACAUGAGGAUCACCCAUGUU [SSArg A #3] :
[reply] bin A

[ask] Class label required: UCGUGUGUUUCGGAUACCAGUGUGGUCGAUACAUGAGGAUCACCCAUGUUAGAGGAGGUACACCCUUGGCAGCCGGCUGUUGCGG [kdtmullin]
[reply] bin B

###

Test system: MS2 coat protein
Assay: apparent KD of MS2 coat protein; designed switch direction (-1 OFF switch, 1 ON switch): -1; higher = weaker reporter binding
Conditions: Eterna round: R95; input ligand: microRNA oligo, concentration not stated
Value kind: apparent KD of MS2 coat protein (nM)
Just the number in nM, nothing appended.

CUUUUGUGAGGAUAUCUGUAGUAAAAAAAUAAAAUUACUACUGAGAAGGCACAUGAGGAUCACCCAUGUUCCUC [salish99_ex4_r3_035] (puzzle: Exclusion 4) ... 34

[ask] Given CUGGUCCGAGGAUAUAUUAUGUGAAACAUGAGGAUCACCCAUGUUAUAUGAUGGAUGUAAAUAGAAGGCGGACUAG [JL-ex5-3.14] (puzzle: Exclusion 5) , state its recorded apparent KD of MS2 coat protein.
[reply] 36.3

[ask] So what's the measured apparent KD of MS2 coat protein for this one? GUUAGACAUGAGGAUCACCCAUGUGAGGAUAUGAUGAGAAUGAAGUAAGAAGUAGGAAUCAGAAGGCACAUAUG [Mat - Mod of Hyphema D31] (puzzle: Exclusion 1)
[reply] 106

[ask] Name the recorded apparent KD of MS2 coat protein for GCACGCAAAGGAUAUCGGAAAGAAAACAUGAGGAUCACCCAUGUAUAUAUCAAAUGGGUGCGAGAAGGUUGAGUGA [Xeleonge] (puzzle: Exclusion 5) .
[reply] 60

[ask] I would be grateful if you could share the reported apparent KD of MS2 coat protein for UUUUUGUGAGGAUAUCAGUAGUAAAUAAAUAAAAUUACUACUGAGAAGGCACAUGAGGAUCACCCAUGUUCCUU [salish99_ex3_r3_090] (puzzle: Exclusion 4) .
[reply] 14

[ask] Which apparent KD of MS2 coat protein is reported for this sequence? GUGGUACAUGAGGAUCACCCAUGUUAGGAUAUCGCGUGAGGUUUUGCUUCCGCGCGCGCGAGAAGGGACGUCUU (puzzle: Exclusion 1)
[reply] 23.2
